- PROTOCOL: physchem
- CONDITION: phosphate buffer, pH 7.4
READOUT_KIND: solubility thermodynamic at 24 h (µM)
Give just the number in µM; leave the unit off.

Some compounds with known solubility thermodynamic at 24 h results, for comparison:
>>> recorded_value("C[C@H](Nc1c(C(N)=O)nnc2ccc(-c3ccc(OCCCN4CCCC4)nc3)cc12)C1CCOCC1")
620
>>> recorded_value("Cc1cn(C)nc1[C@H](C)Nc1c(C(N)=O)nnc2ccc(-c3ccc(OCCCN4CCCC4)nc3)cc12")
510
>>> recorded_value("C[C@H](Nc1c(C(N)=O)nnc2ccc(-c3ccc(OCCCN(C)C)nc3)cc12)C1CCOCC1")
870
>>> recorded_value("CNC(=O)c1nnc2ccc(-c3ccc(OCCCN(C)C)nc3)cc2c1N[C@@H](C)C1CCOCC1")
880

Turning now to a further compound:
// recorded solubility thermodynamic at 24 h for CNC(=O)c1nnc2ccc(-c3ccc(OCCCN(C)C)nc3)cc2c1N[C@@H](C)c1nn(C)cc1C : 620

The reported numbers originate from ChEMBL document CHEMBL4196159.
